Field: melting point. Provide a value for each of the compounds that follow.

# example entries with known answers
COMPOUND | melting point
COC(=O)COc1cccc(-c2nc(COc3ccc(COc4nn(-c5ccccc5)cc4C=O)cc3OC)c(C)o2)c1 [Example 235] | 107 to 109 °C
CCOC(=O)c1cn(-c2ccccc2)nc1OCc1oc2cc(OCc3nc(-c4ccccc4)oc3C)ccc2c1-c1ccccc1 [Example 64] | 143 to 144 °C
COc1cc(COc2nn(Cc3cccnc3)cc2CO)ccc1OCc1nc(-c2ccco2)oc1C [Example 200] | 90 to 91 °C
COc1cc(COc2nn(-c3ccccc3)cc2/C=C/P(=O)(OC)OC)ccc1OCc1nc(-c2ccco2)oc1C | 107 to 108 °C

Parameter requested: melting point. Apply to each item below.
1. CCOC(=O)c1ccc(-c2nc(COc3ccc(COc4nn(-c5ccccc5)cc4/C=C/c4csc(CC)n4)cc3OC)c(C)o2)s1 [Example 330 (E form)]
2. CCc1nc(/C=C/c2cn(-c3ccccc3)nc2OCc2ccc(OCc3nc(-c4cccc(-c5nnn[nH]5)c4)oc3C)c(OC)c2)cs1 [Example 373]
3. CCOC(=O)Cc1ccc(-c2nc(COc3ccc(COc4nn(-c5ccccc5)cc4/C=C\c4cnn(CC)c4)cc3OC)c(C)o2)cc1 [Example 346]

Result block:
1. 145 to 146 °C
2. 144 to 147 °C
3. 140 to 141 °C

For each of the items listed, what is its melting point?
1. COCOCc1nc(-c2ccccc2)oc1COc1ccc(OCc2nc(-c3ccccc3)oc2C)cc1 [Example 92]
2. CCOC(=O)/C=C/c1cc(OCc2ccc(OCc3nc(-c4ccccc4)oc3C)c(OC)c2)nn1-c1ccccc1 [Example 299]

Result block:
1: 74 to 75 °C; 2: 121 to 122 °C

Batch request: melting point per item, same order as input.
1. CCOP(=O)(/C=C/c1cn(-c2ccccc2)nc1OCc1ccc(OCc2nc(-c3ccc(C(=O)OC)cc3)oc2C)c(OC)c1)OCC
2. CNCc1cn(-c2ccccc2)nc1OCc1ccc(OCc2nc(-c3ccco3)oc2C)c(OC)c1 [Example 102]
3. COc1cc(COc2nn(-c3ccccc3)cc2C=O)ccc1OCc1coc(-c2ccco2)n1 [Example 218]

Result block:
1. 129 to 130 °C
2. 103 to 104 °C
3. 162 to 163 °C

For every listed record, write down its melting point.
1. CCn1cc(C=O)c(OCc2ccc(OCc3nc(-c4ccco4)oc3C)c(OC)c2)n1 [Example 178]
2. CCCC(=O)/C=C/c1cn(-c2ccccc2)nc1OCc1ccc(OCc2nc(-c3ccco3)oc2C)c(OC)c1 [Example 157]
3. COc1cc(COc2nn(-c3ccccc3)cc2C=O)ccc1OCc1csc(N2CCOCC2)n1 [Example 197]

Result block:
1. 103 to 104 °C
2. 167 to 168 °C
3. 128 to 129 °C

* * *

ENDPOINT: melting point

CHEM SMILES | melting point
Cc1oc(-c2ccccc2)nc1COc1ccc2c(-c3ccccc3)c(COc3nn(-c4ccccc4)cc3CO)oc2c1 | 118 to 119 °C

Answer for every listed entry: what is its melting point? The entries follow.
1. COc1cc(COc2nn(-c3ccccc3)cc2C=O)ccc1OCc1csc(N2CCCCC2)n1
2. Cc1oc(-c2ccccc2)nc1COc1ccc2c(-c3ccccc3)c(COc3nn(-c4ccccc4)cc3C=O)oc2c1

Result block:
["123 to 124 °C", "176 to 177 °C"]

For each of the items listed, what is its melting point?
1. Cc1oc(-c2ccco2)nc1COc1ccc(COc2nn(Cc3ccccc3)cc2C=O)cc1-c1ccccc1
2. COc1cc(COc2nn(-c3ccccc3)cc2/C=C/c2csc(CO)n2)ccc1OCc1nc(-c2ccc(CC(=O)O)cc2)oc1C
3. COc1cc(COc2nn(-c3ccccc3)cc2C=O)ccc1OCc1sc(-c2ccccc2)nc1C

Result block:
1: 122 to 123 °C; 2: 204 to 205 °C; 3: 171 to 172 °C

Query block: Name the reported melting point value associated with the compound CCOP(=O)(/C=C/c1cn(-c2ccccc2)nc1OCc1ccc(OCc2nc(-c3ccc(OC)c(C(=O)OC)c3)oc2C)c(OC)c1)OCC
Result block: 144 to 145 °C
